This collection of values is drawn from paper PMC6712885.

# targetSystem: Rat EP4 Receptor (Rattus norvegicus, UniProt P43114)
# Sequence (P43114 whole entry): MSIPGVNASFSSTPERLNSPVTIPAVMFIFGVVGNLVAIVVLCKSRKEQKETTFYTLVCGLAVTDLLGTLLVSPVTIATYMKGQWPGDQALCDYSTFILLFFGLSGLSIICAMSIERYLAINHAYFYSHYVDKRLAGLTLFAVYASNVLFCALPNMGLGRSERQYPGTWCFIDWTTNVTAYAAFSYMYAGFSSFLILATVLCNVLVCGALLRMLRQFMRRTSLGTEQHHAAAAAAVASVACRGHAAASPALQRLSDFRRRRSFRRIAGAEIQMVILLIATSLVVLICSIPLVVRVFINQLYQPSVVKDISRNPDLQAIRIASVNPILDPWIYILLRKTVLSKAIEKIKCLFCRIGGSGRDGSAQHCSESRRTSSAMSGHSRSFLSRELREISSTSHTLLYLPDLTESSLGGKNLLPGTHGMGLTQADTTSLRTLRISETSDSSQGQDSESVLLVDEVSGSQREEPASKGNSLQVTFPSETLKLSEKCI
# experimentSummary: EP4 receptor functional activation, cAMP ELISA in transfected HEK293T/17 cells
Each entry below carries its recorded log10 EC50.
parameter: log10 EC50 (log10 of the value in nM)

molecule="COCc1cccc(C[C@H](O)/C=C/[C@H]2[C@H](O)CC(=O)[C@@H]2CCSCCCC(=O)O)c1 [Rivenprost (free Acid)]" parameter="log10 EC50" reading=0.06
molecule=CCCCC[C@H](O)/C=C/[C@H]1CCC(=O)N1CCCCCCC(=O)O parameter="log10 EC50" reading=0.42
molecule=Cc1cc(Cl)ccc1-c1ccc([C@H](O)/C=C/[C@H]2CCC(=O)N2CCCCCCC(=O)O)cc1 parameter="log10 EC50" reading=-0.80
molecule=CCCCC[C@H](O)/C=C/[C@H]1CCC(=O)[C@@H]1CCCCCCC(=O)O parameter="log10 EC50" reading=0.05
molecule=CCCCC[C@H](O)/C=C/[C@H]1CCC(=O)[C@@H]1C/C=C\CCCC(=O)O parameter="log10 EC50" reading=0.12

====

# targetSystem: UniProtKB P35408
# experimentSummary: cell-based
# Format: cell-based
# Design: expressed in transfected cells; host or cells: HEK293T/17
# measurementParameters: Human EP4 Receptor; cAMP response assay; value ± spread (n); read-out: EC50
parameter: EC50

linenotation=CCCCC[C@H](O)/C=C/[C@H]1CCC(=O)[C@@H]1C/C=C\CCCC(=O)O targetsystem="UniProtKB P35408" reading="0.66 nM"
linenotation=CCCCC[C@H](O)/C=C/[C@H]1CCC(=O)N1CCCCCCC(=O)O targetsystem="UniProtKB P35408" reading="1.77 nM"
linenotation=Cc1cc(Cl)ccc1-c1ccc([C@H](O)/C=C/[C@H]2CCC(=O)N2CCCCCCC(=O)O)cc1 targetsystem="UniProtKB P35408" reading="0.18 nM"
linenotation=CCCCC[C@H](O)/C=C/[C@H]1CCC(=O)[C@@H]1CCCCCCC(=O)O targetsystem="UniProtKB P35408" reading="0.79 nM"

====

# targetSystem: hEP4 receptor (Homo sapiens)
# experimentSummary: Radioligand ([H^3]-PGE2) competition binding, hEP4 membranes of HEK293 cells
# Design: expressed in transfected cells; host or cells: HEK293
# measurementParameters: Human EP4 Receptor; displacement of 0.5 nM [H^3]-PGE2, Cheng Prusoff
parameter: Ki (nM)

compound="CCCCC[C@H](O)/C=C/[C@H]1[C@H](O)CC(=O)[C@@H]1CCCCCCC(=O)O [PGE1, Prostaglandin E1]" parameter=Ki reading=0.13
compound="Cc1cc(Cl)ccc1-c1ccc([C@H](O)/C=C/[C@H]2CCC(=O)N2CCCCCCC(=O)O)cc1 [CAY10684]" parameter=Ki reading=0.061
compound="CCCCC[C@H](O)/C=C/[C@H]1CCC(=O)N1CCCCCCC(=O)O [8-aza-11-deoxy-PGE1]" parameter=Ki reading=1.7
compound="COCc1cccc(C[C@H](O)/C=C/[C@H]2[C@H](O)CC(=O)[C@@H]2CCSCCCC(=O)O)c1 [Rivenprost (free Acid)]" parameter=Ki reading=0.37
compound="CCCCC[C@H](O)/C=C/[C@H]1CCC(=O)[C@@H]1CCCCCCC(=O)O [11-deoxy-PGE1]" parameter=Ki reading=0.13
compound="CCCCC[C@H](O)/C=C/[C@H]1CCC(=O)[C@@H]1C/C=C\\CCCC(=O)O [11-deoxy-PGE2]" parameter=Ki reading=0.23

====

# targetSystem: rEP4 receptor (Rattus norvegicus, UniProt P43114)
# Construct: expressed in transfected cells; host or cells: HEK293
# Sequence (P43114 whole entry): as above
# experimentSummary: Radioligand ([H^3]-PGE2) competition binding, rEP4 membranes of HEK293 cells
# measurementParameters: Rat EP4 Receptor; displacement of 0.5 nM [H^3]-PGE2, Cheng Prusoff; read-out: Ki
pKi: −log10 of the molar value.
parameter: pKi

compound="CCCCC[C@H](O)/C=C/[C@H]1CCC(=O)[C@@H]1C/C=C\\CCCC(=O)O [11-deoxy-PGE2]" reading=9.38
compound="CCCCC[C@H](O)/C=C/[C@H]1CCC(=O)[C@@H]1CCCCCCC(=O)O [11-deoxy-PGE1]" reading=9.68
compound="COCc1cccc(C[C@H](O)/C=C/[C@H]2[C@H](O)CC(=O)[C@@H]2CCSCCCC(=O)O)c1 [Rivenprost (free Acid)]" reading=9.46
compound="Cc1cc(Cl)ccc1-c1ccc([C@H](O)/C=C/[C@H]2CCC(=O)N2CCCCCCC(=O)O)cc1 [CAY10684]" reading=10.24

====

# targetSystem: hEP4 receptor (Homo sapiens, UniProt P35408)
# Sequence (P35408 whole entry): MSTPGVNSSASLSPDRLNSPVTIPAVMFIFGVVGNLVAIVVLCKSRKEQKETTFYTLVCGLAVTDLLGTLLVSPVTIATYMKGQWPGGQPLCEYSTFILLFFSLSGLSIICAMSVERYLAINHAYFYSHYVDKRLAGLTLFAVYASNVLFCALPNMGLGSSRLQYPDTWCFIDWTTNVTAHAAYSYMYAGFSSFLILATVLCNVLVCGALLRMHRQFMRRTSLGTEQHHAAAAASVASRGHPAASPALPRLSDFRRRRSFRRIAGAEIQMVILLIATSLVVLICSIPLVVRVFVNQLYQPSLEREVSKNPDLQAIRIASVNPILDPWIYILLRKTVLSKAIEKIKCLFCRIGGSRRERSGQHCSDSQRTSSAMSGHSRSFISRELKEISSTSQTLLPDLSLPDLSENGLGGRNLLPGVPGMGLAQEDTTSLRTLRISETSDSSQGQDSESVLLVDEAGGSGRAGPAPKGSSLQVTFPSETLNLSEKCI
# experimentSummary: cell-based
# Format: cell-based
# Parameters: expressed in transfected cells; host or cells: HEK293T/17
pEC50: −log10 of the molar value.
parameter: pEC50

compound="CCCCC[C@H](O)/C=C/[C@H]1[C@H](O)CC(=O)[C@@H]1CCCCCCC(=O)O [PGE1, Prostaglandin E1]" targetsystem="hEP4 receptor (Homo sapiens, UniProt P35408)" reading=9.38
